Reported GI50 is given for each of the following compounds.
Test system: MDA-MB-435
Experiment: NCI tumour cell line growth inhibition, 48 h
The source made the active and inactive calls. No stated cut-off is given here; in the data, active = GI50 up to about 1.1 µM and inactive = higher.

>  <COMPOUND>
Cc1cc2c(cc1C)C(=O)/C(=N/Nc1ccc(F)cc1)CCO2

>  <GI50>
> 100 µM (inactive)

$$$$

Exercise: Tell me the measured GI50 of COc1cccc2c1Cc1cc(-c3ccccc3)[n+](C)n1-2 , please.
Key: 11.8 µM (inactive)

Exercise: What measured GI50 goes with COC(=O)C1(N2CCOCC2)CCC([C@@H](c2ccccc2)C(C)[N+](=O)[O-])C1 (stereo not given in full) ?
Key: > 100 µM (inactive)

Exercise: Name the reported GI50 value associated with the compound Nc1ccc2c(c1)NCCN2
Key: 82 µM (inactive)

Exercise: Entry CCOP(=O)(OCC)/C(C#N)=C/c1cnc(-c2ccccc2)[nH]1 : reported GI50 = ?
Key: 24.7 µM (inactive)

Exercise: Would you mind telling me what GI50 value was observed for Oc1ccc(Cl)cc1CN1CCN(Cc2cc(Cl)ccc2O)C1 ?
Key: 1.33 µM (inactive)

* * *

System: SK-MEL-28
Experiment: NCI tumour cell line growth inhibition, 48 h
Activity calls are given as the source filed them. No stated cut-off is given here; in the data, active = GI50 up to about 1.1 µM and inactive = higher.
The compounds listed here are annotated with their GI50.

>  <COMPOUND>
COC(=O)CCCc1nc2ccccc2nc1/N=N/c1ccccc1

>  <GI50>
38.5 µM (inactive)

$$$$

Exercise: Lookup: GI50 / SK-MEL-28 / COc1ccc(NC(=O)C(=O)C2CNC(=O)NC2=O)c(OC)c1 (stereo not given)
Key: > 100 µM (inactive)

Exercise: Record lookup: for SK-MEL-28, what GI50 belongs to Cc1ccccc1N1C(=O)/C(=C/c2ccc(N(CCC#N)CCC#N)cc2)N=C1c1cc([N+](=O)[O-])ccc1Cl ?
Key: > 100 µM (inactive)

Exercise: Quick check: GI50 on SK-MEL-28, item Oc1ccccc1/C=N/c1ccccc1/N=C/c1ccccc1O ?
Key: > 100 µM (inactive)

Exercise: Look up GI50 with SK-MEL-28 for this compound: CSc1cc(Br)ccc1-n1c(C(=O)c2ccccc2)c(SC)n(-c2ccccc2)c1=O
Key: > 100 µM (inactive)

* * *

System: SR
Test: NCI tumour cell line growth inhibition, 48 h
Calls of active or inactive are those of the source. Cut-off read from the data, not from the text of the source: active = GI50 up to about 1.1 µM and inactive = higher.
Reported GI50 values for a set of compounds

Exercise: Suppose we examine the compound O=c1c2cc(-c3ccccc3)sc2nc2sc(-c3ccccc3)nn12 ; what GI50 value has been reported?
Key: > 100 µM (inactive)

Exercise: Consider the compound shown here: N/C(=N\n1c(=S)[nH]c2ccccc2c1=O)Nn1c(=S)[nH]c2ccccc2c1=O What is its recorded GI50?
Key: 20.3 µM (inactive)

Exercise: Using the record for COC(=O)c1sc(=S)sc1SCc1cccc(CSc2sc(=S)sc2C(=O)OC)c1 , report its GI50.
Key: > 100 µM (inactive)

Exercise: Any idea what its GI50 is? The compound is O=C1CCc2cc3c(cc21)CC1(Cc2ccccc2C1)C3
Key: 1.86 µM (inactive)

Exercise: // query GI50 value for entry O=C(CC(C(=O)c1ccc(F)cc1)c1ccsc1)c1cccs1 (stereo unspecified)
Key: 39.4 µM (inactive)

Exercise: Tell me the measured GI50 of OCC(O)C(O)C(O)C1SC(c2ccccc2)=NN1c1ccccc1 (stereo unspecified) , please.
Key: > 81.3 µM (inactive)

Exercise: Value lookup for GI50; key = Cc1cn2cc(-c3cccs3)nc2s1
Key: > 67.6 µM (inactive)

Exercise: Consider the compound COc1cc2c3c(c1OC)C1(C=CC(=O)C=C1)CC3NCC2 (stereo unspecified) and give its measured GI50.
Key: > 100 µM (inactive)

Exercise: Looking for the measured GI50 of CC(=O)Nc1n[n+]([O-])c2cc(C)ccc2[n+]1[O-] , can you help?
Key: 2.56 µM (inactive)

Exercise: State the recorded GI50 for this entry: COc1cc(/C=N/N=C(\N)NO)c([N+](=O)[O-])cc1OC
Key: 29.2 µM (inactive)

Exercise: Endpoint output: GI50 of CCOC(=O)/C(=C\c1c(C)[nH]c2ccccc12)P(=O)(OCC)OCC . Value?
Key: > 100 µM (inactive)

* * *

Each entry below carries its recorded GI50.
Tested on: ACHN
Assay: NCI tumour cell line growth inhibition, 48 h
The source made the active and inactive calls. Rule as the data show it: active = GI50 up to about 1.1 µM and inactive = higher.

>  <MOLECULE>
COc1ccc(C2C(Cl)C(=O)N2NC(=O)c2ccc(N)cc2)cc1OC (stereo not drawn)

>  <SYSTEM NAME>
ACHN

>  <GI50>
13.7 µM (inactive)

$$$$
>  <MOLECULE>
NCCN1CC2CCC(CC2)C1

>  <SYSTEM NAME>
ACHN

>  <GI50>
> 10 µM (inactive)

$$$$
>  <MOLECULE>
COC(=O)C(Cc1ccccc1)NS(=O)(=O)c1ccc(-c2c3nc(c(-c4ccc(S(=O)(=O)NC(Cc5ccccc5)C(=O)OC)cc4)c4ccc([nH]4)c(-c4ccc(S(=O)(=O)NC(Cc5ccccc5)C(=O)OC)cc4)c4nc(c(-c5ccc(S(=O)(=O)NC(Cc6ccccc6)C(=O)OC)cc5)c5ccc2[nH]5)C=C4)C=C3)cc1 (stereo not drawn)

>  <SYSTEM NAME>
ACHN

>  <GI50>
> 100 µM (inactive)

$$$$
>  <MOLECULE>
CC1=C(C)C(=O)O[C@@H]([C@](C)(O)[C@]2(O)CC[C@@]3(O)[C@@H]4C[C@H](O)[C@]5(O)[C@@H](O)C=CC(=O)[C@]5(C)[C@H]4CC[C@]23C)C1

>  <SYSTEM NAME>
ACHN

>  <GI50>
> 100 µM (inactive)

$$$$
>  <MOLECULE>
COC(=O)C(C(=O)C(=O)Nc1nc2ccc(OC)cc2s1)c1cnc2ccccc2n1 (stereo not drawn)

>  <SYSTEM NAME>
ACHN

>  <GI50>
> 100 µM (inactive)

$$$$

Exercise: Reported GI50, molecule C=C(C)C1CC/C(C)=C/CC[C@]2(C)O[C@H]2CC/C(COC(C)=O)=C\[C@@H]1O (stereo partly drawn) : ____
Key: > 50 µM (inactive)

Exercise: Could you tell me which GI50 is on file for COC(=O)c1ccc(NCC2=CC(=O)c3ccccc3C2=O)cc1 ?
Key: 13.9 µM (inactive)

Exercise: Param item = COc1ccc2c(c1)/c(=C/C#N)c1c3ccccc3[n+](C)n21 ; retrieve measured GI50.
Key: 9.38 µM (inactive)

Exercise: Give the measured GI50 of Cc1ccc2[nH]c(=O)c(C(C#N)c3ccccc3)nc2c1 (stereo not drawn) .
Key: 50.9 µM (inactive)

Exercise: What value of GI50 has been recorded for this entry: CN(Cc1cnc2nc(N)nc(N)c2n1)c1ccc(C(=O)NC(CCC(=O)NC(P(=O)(O)O)P(=O)(O)O)C(=O)O)cc1 (stereo not drawn)
Key: 49.7 µM (inactive)

Exercise: Need GI50, item CCOC(=O)N1c2c(ccn2C)-c2ccn(C)c2N1C(=O)OCC
Key: 15.8 µM (inactive)

Exercise: Item under review: C1=C\SS/C=C\SS/1 . Reported GI50?
Key: 27.9 µM (inactive)

Exercise: What GI50 value was documented for this molecule, CNC(=O)OC(C)CN1c2ccccc2Sc2ccccc21 (stereo not drawn) ?
Key: 83.8 µM (inactive)

Exercise: I am curious: what GI50 value has been reported for COC(=O)[C@@]12CC(C(C)C)[C@H]3CC(C(=O)C=C1OC)[C@H]32 (stereo partly drawn) ?
Key: > 100 µM (inactive)

Exercise: Could you share which GI50 value was measured for O=C(O)CCC1COc2ccccc2O1 (stereo not drawn) ?
Key: > 10 µM (inactive)

Exercise: Entry Nc1ccc(Oc2ccc(C34CC5CC(C3)CC(c3ccc(Oc6ccc(N)cc6C(F)(F)F)cc3)(C5)C4)cc2)c(C(F)(F)F)c1 : reported GI50 = ?
Key: 32.9 µM (inactive)

Exercise: Would you mind telling me what GI50 value was observed for C/C(=N\NS(=O)(=O)c1ccc(C)cc1)c1ccccn1 ?
Key: 26.1 µM (inactive)

Exercise: Fill in the blank: the reported GI50 of O=C(O)CN(c1ccccc1)S(=O)(=O)c1ccc(Cl)cc1 is ____.
Key: > 100 µM (inactive)

* * *

Tested on: HOP-92
Test: NCI tumour cell line growth inhibition, 48 h
Active and inactive are the calls of the source. Rule as the data show it: active = GI50 up to about 1.1 µM and inactive = higher.
Reported GI50 by item:

>  <COMPOUND>
COc1ccc(C2=Nc3c(nc(SC)[nH]c3=O)NC(c3ccccc3)C2)cc1 (stereo unspecified)

>  <GI50>
46.3 µM (inactive)

$$$$
>  <COMPOUND>
O=C1c2c(F)c(F)c(F)c(F)c2SC2=Nc3cccc4cccc(c34)N12

>  <GI50>
2.37 µM (inactive)

$$$$
>  <COMPOUND>
O=C(C[n+]1ccccc1)N/N=C(\Cc1nc2ccc([N+](=O)[O-])cc2nc1O)C(=O)Nc1cc(Cl)c(Cl)cc1Cl

>  <GI50>
> 100 µM (inactive)

$$$$
>  <COMPOUND>
CC(=O)c1[nH]c(NCc2ccccc2)c(C(=S)Nc2ccccc2)c1N

>  <GI50>
14.9 µM (inactive)

$$$$
>  <COMPOUND>
COc1ccc(C2SC(C)C(=O)N2c2nc(-c3nc(-c4ccc(Cl)cc4)cs3)cs2)cc1 (stereo unspecified)

>  <GI50>
> 100 µM (inactive)

$$$$
>  <COMPOUND>
O=C(c1ccco1)N(C(=S)N1CCN(c2ccccn2)CC1)c1ccccc1

>  <GI50>
> 100 µM (inactive)

$$$$
>  <COMPOUND>
COc1cc2c(cc1C)NC(=O)/C2=C\c1cccnc1

>  <GI50>
25.1 µM (inactive)

$$$$
>  <COMPOUND>
Nc1nc(Cl)c2ncn(Cc3cccc(CCl)c3)c2n1

>  <GI50>
1.64 µM (inactive)

$$$$

Exercise: Recorded GI50 for Cc1ccc(C(=O)N(C2CCCCC2)C2CCCCC2)cc1/N=N/N(C)C , please?
Key: 11 µM (inactive)

Exercise: Which GI50 reading was recorded for the compound Nc1ccc2c(c1)NCCN2 ?
Key: > 100 µM (inactive)

Exercise: Requested read-out: GI50. Entry: CN(CCNC(=O)c1nn(-c2ccccc2)c2c1Cc1ccccc1-2)CCNC(=O)c1nn(-c2ccccc2)c2c1Cc1ccccc1-2
Key: 1.53 µM (inactive)

Exercise: Item N#C[BH2-][n+]1ccc(C(=O)NNCc2ccccc2)cc1 has what recorded GI50?
Key: > 100 µM (inactive)

Exercise: Look up GI50 for this compound: O=C(Nc1ccc2[nH]c(C(=O)N3CC(CCl)c4c3cc([N+](=O)[O-])c3ccccc43)cc2c1)c1cc2ccccc2o1 (stereo unspecified)
Key: > 58.5 µM (inactive)

Exercise: Please look up its GI50: O=C(O)CN(c1ccccc1)S(=O)(=O)c1ccc(Cl)cc1
Key: > 100 µM (inactive)

Exercise: Look up GI50 for this compound: O=C(O)c1ccccc1CC(Cc1ccccc1)C(=O)O (stereo unspecified)
Key: > 100 µM (inactive)
